procedure_details: Apparent permeability across apical to basolateral side in human Caco-2/TC7 cells at 20 uM incubated for 2 hrs by LC-MS/MS analysis
Format: ADME, cell-based, Caco2/TC7
Listing: Papp A→B at 2 h, 20 µM of selected compounds
All answers are understood in ×10⁻⁶ cm/s, so give the number only.

# return recorded Papp A→B at 2 h, 20 µM for input CCCCCCCNC[C@H](O)c1cc(C(F)(F)F)nc2c(C(F)(F)F)cccc12 0.5

Entry CCCCCCCNC[C@@H](O)c1cc(C(F)(F)F)nc2c(C(F)(F)F)cccc12 needs its Papp A→B at 2 h, 20 µM filled in; supply it. 5.3

Identify measured Papp A→B at 2 h, 20 µM associated with COC[C@H](Cc1ccccc1)NC[C@@H](O)c1cc(C(F)(F)F)nc2c(C(F)(F)F)cccc12 6.1

Fill in Papp A→B at 2 h, 20 µM for record O[C@H](c1cc(C(F)(F)F)nc2c(C(F)(F)F)cccc12)[C@@H]1CCCCN1 [(R,S)-MEFLOQUINE] 4.5

More entries:
Given CCCCCNC[C@@H](O)c1cc(C(F)(F)F)nc2c(C(F)(F)F)cccc12 , respond with its Papp A→B at 2 h, 20 µM. 11.4

Kindly indicate its recorded Papp A→B at 2 h, 20 µM. Item: CCCCCNC[C@H](O)c1cc(C(F)(F)F)nc2c(C(F)(F)F)cccc12 3.7

Report Papp A→B at 2 h, 20 µM, nothing else, for this compound: O[C@@H](c1cc(C(F)(F)F)nc2c(C(F)(F)F)cccc12)[C@H]1CCCCN1 [(S,R)-MEFLOQUINE] 4.5

----------
procedure_details: Selectivity index, ratio of IC50 for cytotoxicity against human THP-1 cells to IC50 for antiplasmodial activity against Plasmodium falciparum 3D7 infected in human erythrocytes by HRP2-ELISA
Format: toxicity, cell-based
condition_context: read-out: Ratio IC50
// boundary case: selectivity ratio equal to 100 maps to false (0); strictly smaller maps to true (1)

Consider the following illustrative entries.
Quick check: does O[C@H](CNCCN1CCN(C(c2ccccc2)c2ccccc2)CC1)c1cc(C(F)(F)F)nc2c(C(F)(F)F)cccc12 have selectivity ratio under 100? true (1)

Problem: For the compound OC[C@H](Cc1ccccc1)NC[C@H](O)c1cc(C(F)(F)F)nc2c(C(F)(F)F)cccc12 (single isomer, unassigned) , is selectivity ratio under 100? false (0)

Does the reported selectivity ratio of the following compound sit strictly below 100? O[C@@H](CNCCCC(F)(F)F)c1cc(C(F)(F)F)nc2c(C(F)(F)F)cccc12 false (0)

Continuing:
I wonder whether OC[C@H](Cc1ccccc1)NC[C@@H](O)c1cc(C(F)(F)F)nc2c(C(F)(F)F)cccc12 has selectivity ratio below 100. Can you tell? false (0)

Here's an entry: COC[C@H](Cc1ccccc1)NC[C@@H](O)c1cc(C(F)(F)F)nc2c(C(F)(F)F)cccc12 . Is its selectivity ratio below 100? false (0)

Decide: selectivity ratio of O[C@@H](CNCC1CC1)c1cc(C(F)(F)F)nc2c(C(F)(F)F)cccc12 strictly below 100? false (0)

Check if selectivity ratio falls below 100 for OC[C@@H](Cc1ccccc1)NC[C@@H](O)c1cc(C(F)(F)F)nc2c(C(F)(F)F)cccc12 (single isomer, unassigned) . true (1)

Identify whether the compound COC[C@H](Cc1ccccc1)NC[C@H](O)c1cc(C(F)(F)F)nc2c(C(F)(F)F)cccc12 records selectivity ratio below 100. false (0)

----------
procedure_details: Selectivity index, ratio of IC50 for cytotoxicity against human HepG2 cells to IC50 for antiplasmodial activity against Plasmodium falciparum 3D7 infected in human erythrocytes by HRP2-ELISA
Assay type: toxicity, cell-based
condition_context: read-out: Ratio IC50
selectivity ratio: recorded values

Return selectivity ratio (reported value) for this molecule: O[C@H](CNCCN1CCN(C(c2ccccc2)c2ccccc2)CC1)c1cc(C(F)(F)F)nc2c(C(F)(F)F)cccc12 60

For the molecule O[C@@H](CNCCNC(c1ccccc1)c1ccccc1)c1cc(C(F)(F)F)nc2c(C(F)(F)F)cccc12 , give its reported selectivity ratio. 177

# return recorded selectivity ratio for input OC[C@@H](Cc1ccccc1)NC[C@@H](O)c1cc(C(F)(F)F)nc2c(C(F)(F)F)cccc12 (single isomer, unassigned) 151

Now consider the entry below.
Find the measured selectivity ratio of O[C@H](CNCCNC(c1ccccc1)c1ccccc1)c1cc(C(F)(F)F)nc2c(C(F)(F)F)cccc12 and report it. 268

----------
System: Plasmodium falciparum
procedure_details: Antiplasmodial activity against CQ-susceptible Plasmodium falciparum 3D7 assessed as inhibition of parasite growth measured after 48 hrs by SYBR Green 1 dye based fluorescence assay
Type: functional, organism-based
condition_context: 3D7, 48 h
observed_property: pIC50
# pIC50: negative log10 of molar concentration; output just the value

The cases that follow already have their pIC50 on record.
Tell me measured pIC50 for O[C@H](CNCCNC(c1ccccc1)c1ccccc1)c1cc(C(F)(F)F)nc2c(C(F)(F)F)cccc12 please. 7.45

Quick one: give measured pIC50 for OC[C@@H](NC[C@@H](O)c1cc(C(F)(F)F)nc2c(C(F)(F)F)cccc12)c1ccccc1 7.03

Continuing:
Determine its reported pIC50: C[C@H](CO)NC[C@H](O)c1cc(C(F)(F)F)nc2c(C(F)(F)F)cccc12 7.32

Return the recorded pIC50 value; entry: O[C@H](CNCCN1CCN(C[C@@H](O)c2cc(C(F)(F)F)nc3c(C(F)(F)F)cccc23)CC1)c1cc(C(F)(F)F)nc2c(C(F)(F)F)cccc12 6.44

Read off the recorded pIC50 for O[C@H](CN1CCN(C(c2ccccc2)c2ccccc2)CC1)c1cc(C(F)(F)F)nc2c(C(F)(F)F)cccc12 7.41

Specify pIC50 for O[C@H](CNCCCCCCCCCCCCNC[C@@H](O)c1cc(C(F)(F)F)nc2c(C(F)(F)F)cccc12)c1cc(C(F)(F)F)nc2c(C(F)(F)F)cccc12 and stop. 6.60

Fill in pIC50 for record O[C@@H](CNCCN1CCN(C[C@H](O)c2cc(C(F)(F)F)nc3c(C(F)(F)F)cccc23)CC1)c1cc(C(F)(F)F)nc2c(C(F)(F)F)cccc12 6.34

----------
Entries and their pIC50 values follow.
Tested on: Plasmodium falciparum
procedure_details: Antiplasmodial activity against CQ-susceptible Plasmodium falciparum 3D7 assessed as inhibition of parasite growth measured after 48 hrs by SYBR Green 1 dye based fluorescence assay
Assay type: functional, organism-based
condition_context: 3D7, 48 h
Note on units: pIC50 is unitless, being -log10 of a concentration expressed in mol/L.

Some entries whose results are on file:
Assign pIC50 to the following record: O[C@@H](CNCC1CC1)c1cc(C(F)(F)F)nc2c(C(F)(F)F)cccc12 7.64

Quickly give me recorded pIC50 for O[C@@H](CNCCN1CCN(C(c2ccccc2)c2ccccc2)CC1)c1cc(C(F)(F)F)nc2c(C(F)(F)F)cccc12 7.35

State its pIC50 for this compound: O[C@@H](CNCCNC(c1ccccc1)c1ccccc1)c1cc(C(F)(F)F)nc2c(C(F)(F)F)cccc12 7.45

More entries:
// Input: CC(C)(CO)NC[C@@H](O)c1cc(C(F)(F)F)nc2c(C(F)(F)F)cccc12 . Output its pIC50 only. 6.59

Given the compound O[C@@H](CN1CCN(C(c2ccccc2)c2ccccc2)CC1)c1cc(C(F)(F)F)nc2c(C(F)(F)F)cccc12 , write its reported pIC50. 7.27

----------
procedure_details: Selectivity index, ratio of IC50 for cytotoxicity against human THP-1 cells to IC50 for antiplasmodial activity against Plasmodium falciparum 3D7 infected in human erythrocytes by HRP2-ELISA
Assay type: toxicity, cell-based
condition_context: read-out: Ratio IC50
Listed here: items and their measured selectivity ratio.

Consider the compound O[C@H](CNCC1CC1)c1cc(C(F)(F)F)nc2c(C(F)(F)F)cccc12 and give its recorded selectivity ratio. 534

Specify measured selectivity ratio for O[C@@H](CNCCNC(c1ccccc1)c1ccccc1)c1cc(C(F)(F)F)nc2c(C(F)(F)F)cccc12 . 100

Look up selectivity ratio of O[C@H](CNCCNC(c1ccccc1)c1ccccc1)c1cc(C(F)(F)F)nc2c(C(F)(F)F)cccc12 and report it. 372

***
Fill in reported selectivity ratio for this entry: O[C@H](CNCCCC(F)(F)F)c1cc(C(F)(F)F)nc2c(C(F)(F)F)cccc12 > 8120

Identify selectivity ratio associated with the compound OC[C@@H](Cc1ccccc1)NC[C@H](O)c1cc(C(F)(F)F)nc2c(C(F)(F)F)cccc12 73

----------
procedure_details: Cytotoxicity against human THP-1 cells assessed as reduction in cell viability incubated for 72 hrs by MTT assay
Type: toxicity, cell-based
Label Met when IC50 at 72 h is strictly below 7 µM; otherwise label Not met.

Below, 4 compounds whose answers are already recorded.
Please state whether IC50 at 72 h is below 7 µM for COc1cccc2c1C(=O)c1c(O)c3c(c(O)c1C2=O)C[C@@](O)(C(=O)CO)C[C@@H]3O[C@H]1C[C@H](N)[C@H](O)[C@H](C)O1 Met

Criterion: IC50 at 72 h strictly below 7 µM. Is it met by O[C@@H](CNCCN1CCN(C(c2ccccc2)c2ccccc2)CC1)c1cc(C(F)(F)F)nc2c(C(F)(F)F)cccc12 ? Not met

IC50 at 72 h under 7 µM? Item: OC[C@H](Cc1ccccc1)NC[C@H](O)c1cc(C(F)(F)F)nc2c(C(F)(F)F)cccc12 (single isomer, unassigned) Not met

Find out if reported IC50 at 72 h for O[C@H](CNCCCC(F)(F)F)c1cc(C(F)(F)F)nc2c(C(F)(F)F)cccc12 is less than 7 µM Not met

Now for a further compound.
Find out if reported IC50 at 72 h for O[C@@H](CNCCCC(F)(F)F)c1cc(C(F)(F)F)nc2c(C(F)(F)F)cccc12 is less than 7 µM Not met
